tgt: T1, hCD37-M1 (human/murine chimera, UniProt P11049 1-281)
T1 construct: stably expressed on 300-19 cells; also called hCD37-M1 variant
T1 chain: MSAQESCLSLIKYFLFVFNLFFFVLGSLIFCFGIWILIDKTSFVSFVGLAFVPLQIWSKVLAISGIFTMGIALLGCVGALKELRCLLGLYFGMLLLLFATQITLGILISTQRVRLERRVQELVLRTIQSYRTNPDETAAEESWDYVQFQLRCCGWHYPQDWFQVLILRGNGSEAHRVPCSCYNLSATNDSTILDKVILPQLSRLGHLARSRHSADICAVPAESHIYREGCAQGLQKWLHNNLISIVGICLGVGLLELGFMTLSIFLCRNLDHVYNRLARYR
methodNotes: flow cytometry, 300-19 cells expressing hCD37-M1, 1.5 µg/mL antibody
measureName: binding result

1) muCD37-56 (antibody, mouse IgG1, kappa, V domains shown, Murine hybridoma antibody) VH: DVQLQESGPDLVKPSQSLSLTCTVTGYSITSGFAWHWIRQFPGNKLEWMGYIHYSGGTNYNPSLKSRVSITRDTSKNQFFLQLNSVTTEDTATYYCARGYYGFGAWFAYWGQGTLVPVSA VL: QIVLTQSPAFMSASPGDKVTMTCSASSSVTYMHWYQQKSGTSPKRWIYDTSKLASGVPARFSGGGSGTSYSLTISTMEAEDAATYYCQQWISDPPTFGGGTKLEIKR	binds
2) muCD37-38 (antibody, mouse IgG1, kappa, V domains shown, Murine hybridoma antibody) VH: DVQLQESGPDLVKPSQSLSLTCTVTGYSITSGFGWHWIRQFPGNKLEWMAYILYSGGTDYNPSLKSRISITRDTSKNQFFLRLSSVTTEDTATYYCARGYYGYGAWFVYWGQGTLVTVSA VL: QIVLTQSPAIMSASPGEKVTMTCSASSSVTYMHWYQQKSGTSPKRWIYDTSKLASGVPARFSGGGSGTSYSLTISSMEAEDAATYYCQQWISNPPTFGGGTKLEIKR	binds
3) muCD37-51 (antibody, mouse IgG2a, kappa, V domains shown, Murine hybridoma antibody) VH: DVQLQESGPDLLKPSQSLSLTCTVTGYSISSGFAWHWIRQFPGNKLEWMGYIHYSGSTNYSPSLKSRISITRDSSKNQFFLQLNSVTTEDTATYYCARGYYGFGAWFVYWGQGTLVTVSA VL: QIVLTQSPAIMSASPGEKVTMTCSATSSVTYMHWYQQKSGTSPKRWIYDTSKLASGVPARFSGSGSGTSYSLTISNMEAEDAATYYCQQWSSNPPTFGSGTKLEIKR	binds
4) muCD37-57 (antibody, mouse IgG2a, kappa, V domains shown, Murine hybridoma antibody) VH: DVQLQESGPDLLKPSQSLSLTCTVTGYSITSGFAWHWIRQFPGNKLEWMGYILYSGSTVYSPSLKSRISITRDTSKNQFFLQLNSVTTEDTATYYCARGYYGYGAWFAYWGQGTLVTVSA VL: QIVLTQSPAIMSASPGEKVTMTCSATSSVTYMHWYQQKSGTSPKRWIYDTSKLASGVPARFSGSGSGTSYSLTISSMEAEDAATYYCQQWSDNPPTFGSGTKLEIKR	binds

Reference for the values: patent US20110256153A1
